Molecular target: RARβ2 (Homo sapiens, UniProt P10826)
Construct: expressed in transfected cells
Sequence (P10826 1-448 isoform P10826-2): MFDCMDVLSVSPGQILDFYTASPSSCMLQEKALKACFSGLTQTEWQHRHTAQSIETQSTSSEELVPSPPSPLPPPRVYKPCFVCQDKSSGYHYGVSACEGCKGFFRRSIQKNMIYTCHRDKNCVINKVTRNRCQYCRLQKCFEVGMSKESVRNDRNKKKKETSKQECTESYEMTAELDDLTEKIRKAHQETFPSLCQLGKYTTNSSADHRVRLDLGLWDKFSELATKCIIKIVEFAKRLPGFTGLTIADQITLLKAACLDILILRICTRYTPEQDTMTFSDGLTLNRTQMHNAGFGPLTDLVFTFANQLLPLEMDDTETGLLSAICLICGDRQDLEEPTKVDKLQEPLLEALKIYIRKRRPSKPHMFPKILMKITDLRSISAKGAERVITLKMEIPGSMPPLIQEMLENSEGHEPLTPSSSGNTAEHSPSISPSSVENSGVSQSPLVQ
Experiment: Receptor Selection and Amplification Technology (R-SAT) functional receptor assay
Type: cell-based
Conditions: Table 2, read-out: pEC50 (converted)
Parameter: EC50 (nM)

Example cases with answers are listed next.
> print(dat)
                                   compound                     system.under.test  parameter  result
1  CCCCCCCCc1ccc(-c2ccc(C(=O)OCCc3ccccn3)c(F)c2)cc1  RARβ2 (Homo sapiens, UniProt P10826)       EC50    16.2
2  CCCCCCCc1ccc(-c2ccc(C(=O)OCCc3ccccn3)c(F)c2)cc1  RARβ2 (Homo sapiens, UniProt P10826)       EC50    19.5
3  CCCCCCCCc1ccc(-c2ccc(C(=O)OCc3ccco3)cc2)cc1  RARβ2 (Homo sapiens, UniProt P10826)       EC50     275

[1] CCCCCCCCc1ccc(-c2ccc(C(=O)OCCC#N)cc2)cc1
[2] CCCCCCCCOc1ccc(-c2ccc(C(=O)OCCC#N)cc2)cc1
[3] CCCCCCCOc1ccc(-c2ccc(C(=O)OCCC#N)cc2)cc1 [Compound 23]
Asked: Order field: EC50 | Direction: descending (largest first) Answer format: list of labels, ordered as asked.
Given back: 2, 1, 3
(2: 195 nM, 1: 112 nM, 3: 60.3 nM)

====

Target: RARβ2 (Homo sapiens, UniProt P10826)
Construct: expressed in transfected cells
Sequence (P10826 1-448 isoform P10826-2): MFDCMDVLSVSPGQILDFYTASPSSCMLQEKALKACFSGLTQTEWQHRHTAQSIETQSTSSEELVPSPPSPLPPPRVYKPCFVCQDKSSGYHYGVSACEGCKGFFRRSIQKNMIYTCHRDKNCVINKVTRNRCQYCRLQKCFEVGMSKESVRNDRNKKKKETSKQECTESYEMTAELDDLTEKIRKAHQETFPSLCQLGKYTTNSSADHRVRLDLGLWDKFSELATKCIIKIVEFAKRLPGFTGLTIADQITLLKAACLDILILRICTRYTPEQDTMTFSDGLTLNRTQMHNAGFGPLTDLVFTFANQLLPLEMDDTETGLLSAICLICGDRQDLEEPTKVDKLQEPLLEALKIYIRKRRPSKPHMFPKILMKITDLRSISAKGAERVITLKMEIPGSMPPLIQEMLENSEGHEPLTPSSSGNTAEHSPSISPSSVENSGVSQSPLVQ
Experiment: Receptor Selection and Amplification Technology (R-SAT) functional receptor assay
Assay type: cell-based
Details: Table 2, read-out: pEC50 (converted)
Parameter: EC50 (nM)

Example cases with answers are listed next.
> print(dat)
                                   compound                     system.under.test  parameter  result
1   CCCCCCCc1ccc(-c2ccc(C(=O)OCCC#N)cc2)cc1  RARβ2 (Homo sapiens, UniProt P10826)       EC50    52.5
2  CCCCCCCOc1ccc(-c2ccc(C(=O)OCCC#N)cc2)cc1 [Compound 39]  RARβ2 (Homo sapiens, UniProt P10826)       EC50     174

[1] CCCCCCCOc1ccc(-c2ccc(C(=O)OCCc3ccccn3)cc2)cc1
[2] CCCCCCCc1ccc(-c2ccc(C(=O)OCc3ccco3)cc2)cc1
[3] CCCCCCOc1ccc(-c2ccc(C(=O)OCc3ccco3)cc2)cc1
Asked: Please produce an ascending ranking of these compounds based on EC50. Answer format: list of labels, ordered as asked.
Given back: 2, 1, 3
